molecular target: T1, recombinant human CD3 epsilon/delta heterodimer (human, UniProt P07766 23-126; P04234 22-105); test: Octet BLI, mAb on FAB2G sensor, hCD3 E/D 200-50 nM; R^2 1.00
T1 construct: Recombinant protein in solution (200-50 nM) in the Octet assay; also called hCD3 E/D; human CD3E/D
T1 sequence (P07766 23-126, stated change not applied, chain 1 of 2): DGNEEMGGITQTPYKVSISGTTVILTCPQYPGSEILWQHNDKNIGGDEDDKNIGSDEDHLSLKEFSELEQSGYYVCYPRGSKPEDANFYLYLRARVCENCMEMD
T1 sequence (P04234 22-105, stated change not applied, chain 2 of 2): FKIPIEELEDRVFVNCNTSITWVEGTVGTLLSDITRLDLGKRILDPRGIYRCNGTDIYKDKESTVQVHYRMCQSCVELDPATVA
// reported pKd per item
The value called pKd is obtained by taking minus log10 of the concentration in mol/L.

Solved entries (count: 5):
Ask: Given ABL-CD3-1 (antibody, V domains shown, Chimeric hybridoma mAb: human V, CH1, upper hinge; mouse middle hinge, CH2, CH3) VH: EVQLVESGGGLVKPGGSLRLSCAASGFTLSSYSMNWVRQAPGKGLEWVSSISRSGSYIYYADSVKGRFTISRDNAKNSLYLQMNSLRAEDTAVYYCAREKWELLYFDYWGQGTLVTVSS VL: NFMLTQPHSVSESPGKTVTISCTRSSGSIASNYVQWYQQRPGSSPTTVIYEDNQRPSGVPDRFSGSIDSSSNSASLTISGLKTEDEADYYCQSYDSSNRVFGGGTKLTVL , respond with its pKd.
Reply: 6.97

Ask: // fetch pKd given entry ABL-CD3-58 (antibody, V domains shown, Chimeric hybridoma mAb: human V, CH1, upper hinge; mouse middle hinge, CH2, CH3) VH: EVQLVESGGGLVKPGGSLRLSCVVSGFTFSNYNMNWVRQAPGKGLEWVSSSSRSSYIYYADSVKGRFTISRDNAKNSLYLQMNSLRAEDTAIYYCAREKWELLFFDYWGQGTLVTVSS VL: NFMLTQPHSVSESPGKTVTISCTRSSGSIASNFVQWYQQRPGSSPTTVIYEDNQRPSGVPDRFSGSIDSSSNSASLTISGLKTEDEADYYCQSFDSSNRVFGGGTKLTVL
Reply: 7.36

Ask: Read the entry ABL-CD3-41 (antibody, V domains shown, Chimeric hybridoma mAb: human V, CH1, upper hinge; mouse middle hinge, CH2, CH3) VH: EVQLVESGGGLVKPGGSLRLSCAASGFTFSSYSMNWVRQAPGKGLEWVSSVNSRGSYIYYADSVKGRFTISRDNAKDSLYLQMNSLRADDTAVYYCARDRRELLLDYWGQGTLVTVSS VL: SYELTQPPSVSVSPGQTARITCSGDALPKKYAYWYQQKSGQAPVLVIYEDSKRPSGIPERFSGSSSGTMATLTISGAQVEDEADYYCYSTDSSGNHCWVFGGGTKLTVL and write its reported pKd.
Reply: 7.07

Ask: Tell me pKd reported for ABL-CD3-36 (antibody, V domains shown, Chimeric hybridoma mAb: human V, CH1, upper hinge; mouse middle hinge, CH2, CH3) VH: EVQLVESGGGLVQRGGSLRLSCAASGFTFSNYWMSWVRQAPGKGLEWVANIKEDGSEKYCVDSVKGRFTISRDNAKHSLYLQMNSLRAEDTAVYYCARERRTGYFDYWGQGTLVTVSS VL: DIQMTQSPSTLSASVGDRVTITCRASQSISSWLAWFQQKTGKAPKLLIYKASSLESGVPSRFSGSGSGTEFTLTISSLQPDDFATYYCQQYISYSWTFGQGTKVEIK
Reply: 7.60

Ask: Give recorded pKd. ABL-CD3-19 (antibody, V domains shown, Chimeric hybridoma mAb: human V, CH1, upper hinge; mouse middle hinge, CH2, CH3) VH: EVQLVESGGGLVKPGGSLRLSCAASGFTLSSYSMNWVRQAPGKGLEWVSSISRSSSYIYYADSVKGRFTISRDNAKNSLYLQMNSLRAEDTAVYYCARERWELLYFDYWGQGTLVTVSS VL: NFMLTQPHSVSESPGKTVTISCTRSSGSIASNYVQWYQQRPGSSPTTVIYEDNQRPSGVPDRFSGSIDSSSNSASLTISGLKTEDEADYYCQSFDNSNRVFGGGTKLTVL
Reply: 7.63

***
Ask: Annotate the binder ABL-CD3-6 (antibody, V domains shown, Chimeric hybridoma mAb: human V, CH1, upper hinge; mouse middle hinge, CH2, CH3) VH: EVQLVDSGGGLVKPGGSLRLSCAASGFTFSSYSMNWVRQAPGKGLEWVSSISSRGSYRNYADSVKGRFTISRDNAKNSLYLQMNSLRAEDTAVYYCARDRRELLLDCWGQGTLVTVSS VL: SYELTQPPSVSVSPGQTARITCSGDALPKKYAYWYQQKSGQAPVLVIYEDSKRPSGIPERFSGSSSGTMATLTISGAQVEDEADYYCYSTDSSGNHSWVFGGGTKLTVL with its measured pKd.
Reply: 7.16

Ask: Look up pKd of ABL-CD3-59 (antibody, V domains shown, Chimeric hybridoma mAb: human V, CH1, upper hinge; mouse middle hinge, CH2, CH3) VH: EVQLVESGGGLVKPGGSLRLSCTASGFTLSSYSMNWVRQAPGKGLEWVSSLSRSSNYIYYAVSVKGRFTISRDNAKNSLYLQMNSLRAEDTAVYYCARERWELLYFDYWGQGTLVTVSS VL: NFMLTQPHSVSESPGKTVTISCTRSSGSIASNYVQWYQQRPGSSPTTVIYEDNQRPSGVPDRFSGSIDSSSNSASLTISGLQTEDEADYYCQSYDNSIRVFGGGTKLTVL and report it.
Reply: 7.90

Just for reference, patent US20260167721A1 is where these values come from.
